All figures here come from the supplement of paper PMC7877785.

assay: self-splicing fitness, log relative to wild type (ln ratio); higher = more splicing; Tetrahymena group I intron in knt gene, E. coli kanamycin selection, DiMSum; sequences stand for … in CUCUCU…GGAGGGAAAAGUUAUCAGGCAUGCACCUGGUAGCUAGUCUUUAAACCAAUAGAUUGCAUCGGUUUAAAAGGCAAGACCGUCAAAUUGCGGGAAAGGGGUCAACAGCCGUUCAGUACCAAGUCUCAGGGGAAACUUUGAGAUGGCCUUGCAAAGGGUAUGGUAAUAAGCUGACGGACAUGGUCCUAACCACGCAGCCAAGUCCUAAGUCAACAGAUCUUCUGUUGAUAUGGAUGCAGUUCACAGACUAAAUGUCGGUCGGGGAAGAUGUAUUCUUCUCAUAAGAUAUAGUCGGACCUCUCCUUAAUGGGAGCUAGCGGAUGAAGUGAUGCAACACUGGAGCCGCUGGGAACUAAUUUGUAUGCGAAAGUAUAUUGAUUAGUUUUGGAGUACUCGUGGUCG;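 further: selection with 25 µg/mL kanamycin versus none on LB agar overnight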
runParameters: 30 °C
Please use 1.0 whenever self-splicing fitness (ln) is not below -3, and 0.0 whenever it is.

- AAUAAGCAAUAUUACGCAAC: 1.0
- UUCUAGCAAUAUUACGGUCG: 1.0
- UGCGAGCAAUAUUACGCUAG: 1.0
- AAAAAGCAAUAUUACGUUUC: 1.0
- ACCAAGCAAUAUUACGAAGA: 0.0
- AUUUAGCAAUAUUACGUCGA: 1.0
- GUCAAGCAAUAUUACGGUCU: 1.0
- CCUAAGCAAUAUUACGAUUC: 0.0
- CAAUAGCAAUAUUACGUUCC: 1.0
- AUUCAGCAAUAUUACGGUAU: 1.0
- CCGCAGCAAUAUUACGUUAG: 1.0
- UGGCAGCAAUAUUACGCGAC: 1.0
- CUUUAGCAAUAUUACGCUGC: 0.0
- CCCUAGCAAUAUUACGUGUC: 0.0
- UCGCAGCAAUAUUACGCAUG: 0.0
- CAUCAGCAAUAUUACGCGGG: 1.0
